- system.under.test: T1, Human latent myostatin (human, UniProt O14793 25-266; O14793 267-375)
- T1 construct: Biotinylated in the ELISAs; also called human myostatin latent form
- T1 sequence 1: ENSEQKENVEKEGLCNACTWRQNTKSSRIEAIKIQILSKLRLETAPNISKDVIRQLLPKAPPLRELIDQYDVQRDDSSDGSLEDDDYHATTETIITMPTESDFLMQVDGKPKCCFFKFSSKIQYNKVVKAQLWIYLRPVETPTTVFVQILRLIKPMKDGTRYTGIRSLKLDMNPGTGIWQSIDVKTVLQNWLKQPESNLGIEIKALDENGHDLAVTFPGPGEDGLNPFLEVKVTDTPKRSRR
- T1 sequence 2: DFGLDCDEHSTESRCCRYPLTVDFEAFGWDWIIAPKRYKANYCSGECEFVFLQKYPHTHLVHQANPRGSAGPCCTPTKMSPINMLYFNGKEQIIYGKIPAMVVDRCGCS
- assay.text: SPR (BIACORE T200), 37 C, pH5.8, avidity condition (capture 185 RU), 1:1 fit; pH 5.8
Let's look at some binders and their measured kon.

binder	kon [M⁻¹ s⁻¹]
MS_M103205H781-SG1/M103202L813-SK1 (antibody, human IgG1, kappa, V domains shown, also called MS1032LO03-SG1; MSLO-03) VH: QVTLKESGPVLVKPTETLTLTCTVSGIDLSHTDISWVRQAPGKGLEWVGIISYAGSTYYMSWAKGRLTISKDTSKNQVVLTMTNMDPVDTATYYCARGVPAYSHGGDLWGQGTLVTVSS VL: DIVMTQSPATLSLSPGERATLSCQTSQSVYHDNWLSWFQQKPGQPPKLLIYWASTLASGVPSRFSGSGSGTDFTLTISSLQPEDAATYYCAGGYGGGRYAFGQGTKVEIKR	543000
MS_M103205H714-SG1/M103202L861-SK1 (antibody, human IgG1, kappa, V domains shown, also called MS1032LO01-SG1; MSLO-01) VH: QVTLKESGPVLVKPTETLTLTCTVSGIDLSHTDISWVRQAPGKGLEWVGIISYAGSTYYASWAKGRLTISKDTSKNQVVLTMTNMDPVDTATYYCARGVPAYSHGGDLWGQGTLVTVSS VL: DIVMTQSPATLSLSPGERATLSCTSSQSVYHNNWLSWFQQKPGQPPKLLIYWASTLAYGVPSRFSGSGSGTDFTLTISSLQPEDAATYYCAGGYGGGRYAFGQGTKVEIKR	1.22e+06
MS_M103205H000-SG1/M103202LO00-SK1 (antibody, human IgG1, kappa, V domains shown, Humanized MST1032, not pH-dependent; also called MS1032LO00-SG1; Ab001) VH: QVTLKESGPVLVKPTETLTLTCTVSGIDLSSYDISWVRQAPGKGLEWVGIISYAGSTYYASWAKGRLTISKDTSKNQVVLTMTNMDPVDTATYYCARGVPAYSTGGDLWGQGTLVTVSS VL: DIVMTQSPATLSLSPGERATLSCQSSQSVYDNNWLSWFQQKPGQPPKLLIYWASTLASGVPSRFSGSGSGTDFTLTISSLQPEDAATYYCAGGYGGGLYAFGQGTKVEIKR	1.6e+06
MS_M103205H781-SG1/M103202L719-SK1 (antibody, human IgG1, kappa, V domains shown, also called MS1032LO02-SG1; MSLO-02) VH: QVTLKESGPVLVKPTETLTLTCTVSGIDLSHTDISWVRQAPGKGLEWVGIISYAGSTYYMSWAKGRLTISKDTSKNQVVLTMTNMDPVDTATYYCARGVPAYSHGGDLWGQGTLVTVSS VL: DIVMTQSPATLSLSPGERATLSCQSSQSVYHNNWLSWFQQKPGQPPKLLIYWASTLAFGVPSRFSGSGSGTDFTLTISSLQPEDAATYYCAGGYGGGLYAFGQGTKVEIKR	1.7e+06
